# target-system: human recombinant Yes [a.a. 2–543 (end)] (Homo sapiens)
# Construct: human recombinant Yes [a.a; 2–543 (end)]; purchased BPS Bioscience 40488
# Sequence (P07947 2-543): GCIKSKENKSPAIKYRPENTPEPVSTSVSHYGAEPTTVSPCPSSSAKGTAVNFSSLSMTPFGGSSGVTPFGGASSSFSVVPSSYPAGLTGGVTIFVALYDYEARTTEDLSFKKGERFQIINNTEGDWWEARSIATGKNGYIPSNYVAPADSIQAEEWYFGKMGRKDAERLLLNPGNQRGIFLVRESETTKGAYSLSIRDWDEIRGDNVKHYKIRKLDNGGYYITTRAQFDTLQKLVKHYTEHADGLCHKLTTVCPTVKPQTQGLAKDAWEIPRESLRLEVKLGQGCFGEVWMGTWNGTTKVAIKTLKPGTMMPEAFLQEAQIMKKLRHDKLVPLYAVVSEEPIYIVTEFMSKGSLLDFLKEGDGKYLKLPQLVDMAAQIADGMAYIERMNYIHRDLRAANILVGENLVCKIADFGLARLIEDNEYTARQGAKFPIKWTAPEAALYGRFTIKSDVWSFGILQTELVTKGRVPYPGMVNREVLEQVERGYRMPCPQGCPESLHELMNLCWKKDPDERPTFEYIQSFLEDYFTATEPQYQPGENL
# assay-notes: ADP-Glo kinase assay, inhibition rates of Yes phosphorylation activity (first and second screening)
# Type: biochemical
# stated-conditions: first screening; mean of n = 4 wells; 10 μmol L−1 compound
Each entry below lists one item and its recorded First screening IR (inhibition rate) value.

compound: COCCCn1c(=O)c2ccccc2n2c(=S)n(CN(Cc3ccc(N(C)C)cc3)C(C)C)nc12 [Compound Z729842360]
target-system: human recombinant Yes [a.a. 2–543 (end)] (Homo sapiens)
display-unit: %
First screening IR (inhibition rate): -9
--
compound: Cc1ccc(-c2cc(-c3ccccc3)c3cc(Cl)ccc3n2)cc1.Cl [Compound Z48950811]
target-system: human recombinant Yes [a.a. 2–543 (end)] (Homo sapiens)
display-unit: %
First screening IR (inhibition rate): 59
--
compound: O=C(NCCCc1c[nH]c2ccccc12)Nc1ccncc1F [Compound Z1677751393]
target-system: human recombinant Yes [a.a. 2–543 (end)] (Homo sapiens)
display-unit: %
First screening IR (inhibition rate): 19
--
compound: c1ccc(-c2nc3c4ccccc4c4ccccc4c3n2-c2ccccc2)cc1 [Compound Z56798059]
target-system: human recombinant Yes [a.a. 2–543 (end)] (Homo sapiens)
display-unit: %
First screening IR (inhibition rate): 6
--
compound: O=C(Cc1csc(NC(=O)c2ccccc2F)n1)NCC1Cc2ccccc2O1 (centres unmarked) [Compound Z420283836]
target-system: human recombinant Yes [a.a. 2–543 (end)] (Homo sapiens)
display-unit: %
First screening IR (inhibition rate): -5
--
compound: O=C(Nc1cccnc1)C1CCN(C(=O)c2ccc(C(F)(F)F)cc2)CC1 [Compound Z228734424]
target-system: human recombinant Yes [a.a. 2–543 (end)] (Homo sapiens)
display-unit: %
First screening IR (inhibition rate): -1
--
compound: O=C(Nc1cc(-c2cccc([N+](=O)[O-])c2)sc1C(=O)O)c1ccc2c(c1)OCCO2 [Compound Z204342356]
target-system: human recombinant Yes [a.a. 2–543 (end)] (Homo sapiens)
display-unit: %
First screening IR (inhibition rate): -1
--
compound: CC1(C(=O)N2CCCc3cc(S(=O)(=O)N4CCCC4)ccc32)Cc2ccccc2C(=O)O1 (centres unmarked) [Compound Z131206652]
target-system: human recombinant Yes [a.a. 2–543 (end)] (Homo sapiens)
display-unit: %
First screening IR (inhibition rate): -1
--
compound: Oc1[nH]c2ccc(Br)cc2c1N=Nc1ccccn1 [Compound Z49660185]
target-system: human recombinant Yes [a.a. 2–543 (end)] (Homo sapiens)
display-unit: %
First screening IR (inhibition rate): -9
--
compound: CS(=O)(=O)c1ccc(N2CCCCCC2)c(S(C)(=O)=O)c1 [Compound Z199538216]
target-system: human recombinant Yes [a.a. 2–543 (end)] (Homo sapiens)
display-unit: %
First screening IR (inhibition rate): 51
--
compound: Cc1ccnc(Nc2nc3ccccc3s2)n1 [Compound Z57289339]
target-system: human recombinant Yes [a.a. 2–543 (end)] (Homo sapiens)
display-unit: %
First screening IR (inhibition rate): -13
--
compound: Cc1c[nH]c(=O)n1-c1cccc(NC(=O)C2CC(=O)N(C)C2c2cccnc2)c1 (centres unmarked) [Compound Z1204166998]
target-system: human recombinant Yes [a.a. 2–543 (end)] (Homo sapiens)
display-unit: %
First screening IR (inhibition rate): -13
--
compound: O=C(O)c1c2c(nc3ccccc13)/C(=C\c1ccc(O)c(Br)c1)CCC2 [Compound Z46036098]
target-system: human recombinant Yes [a.a. 2–543 (end)] (Homo sapiens)
display-unit: %
First screening IR (inhibition rate): -2
--
compound: O=C(Nc1ccc(N2CCOCC2)nc1)c1cc(-c2ccc(Cl)cc2)n[nH]1 [Compound Z229828974]
target-system: human recombinant Yes [a.a. 2–543 (end)] (Homo sapiens)
display-unit: %
First screening IR (inhibition rate): 8
--
compound: Cc1cc(C)n(CCCNC(=O)c2[nH]c3c(c2C)C(=O)CCC3)n1 [Compound Z51995634]
target-system: human recombinant Yes [a.a. 2–543 (end)] (Homo sapiens)
display-unit: %
First screening IR (inhibition rate): 3
--
compound: Cc1nn(C2CCS(=O)(=O)C2)c2nc(C3CC3)cc(C(=O)NCc3ccc4c(c3)OCO4)c12 (centres unmarked) [Compound Z60362928]
target-system: human recombinant Yes [a.a. 2–543 (end)] (Homo sapiens)
display-unit: %
First screening IR (inhibition rate): 5
--
compound: CN(C)c1ccc(Nc2nccc(C(F)(F)F)n2)cn1 [Compound Z319012738]
target-system: human recombinant Yes [a.a. 2–543 (end)] (Homo sapiens)
display-unit: %
First screening IR (inhibition rate): 2
